- Tested on: NCI-H526 cell line
- Run description: Cell viability assay for H526 cell (EZ-Cytox)
- Type: cell-based
- Condition set: Homo sapiens, NCI-H526, 120 h; H526 cells, 5 days, 3000 nM to 0.46 nM
Endpoint label: IC50

Give its IC50 value. Item: COc1cc(C(=O)NC2CCN(C(=O)CCC3(O)CCN(c4cccc5c4C(=O)N(C4CCC(=O)NC4=O)C5=O)CC3)CC2)ccc1Nc1ncc2c(n1)N(C1CCCC1)CC(F)(F)C(=O)N2C (centres unmarked)
< 50 nM

# iterate: COc1cc(C(=O)NC2CCN(C(=O)CSc3cccc4c3C(=O)N(C3CCC(=O)NC3=O)C4=O)CC2)c(F)cc1Nc1ncc2c(n1)N(C1CCCC1)CC(F)(F)C(=O)N2C (centres unmarked)
< 200 nM

# iterate: COc1cc(C(=O)NC2CN(CC3CCN(c4ccc5c(c4)C(=O)N(C4CCC(=O)NC4=O)C5=O)CC3)C2)ccc1Nc1ncc2c(n1)N(C1CCCC1)CC(F)(F)C(=O)N2C (centres unmarked)
< 50 nM

====

- Tested on: NCI-H526 cell line
- Run description: Cell viability assay for H526 cell (EZ-Cytox)
- Type: cell-based
- Condition set: Homo sapiens, NCI-H526, 120 h; H526 cells, 5 days, 3000 nM to 0.46 nM
Endpoint label: IC50

Lookup: IC50 / NCI-H526 cell line / COc1cc(C(=O)NC2CC(N(C)CCC3CCN(c4ccc5c(c4)C(=O)N(C4CCC(=O)NC4=O)C5=O)CC3)C2)ccc1Nc1ncc2c(n1)N(C1CCCC1)CC(F)(F)C(=O)N2C (centres unmarked)
< 0.1 µM

# iterate: COc1cc(C(=O)NC2CCN(CC3CN(c4cccc5c4C(=O)N(C4CCC(=O)NC4=O)C5=O)C3)CC2)ccc1Nc1ncc2c(n1)N(C1CCCC1)CC(F)(F)C(=O)N2C (centres unmarked)
< 0.05 µM

# iterate: COc1cc(C(=O)NC2CCN(CCCN3CCN(c4cccc5c4C(=O)N(C4CCC(=O)NC4=O)C5=O)CC3)CC2)ccc1Nc1ncc2c(n1)N(C1CCCC1)CC(F)(F)C(=O)N2C (centres unmarked)
< 0.03 µM

# iterate: COc1cc(C(=O)NC2CCN(C(=O)CC3CCN(c4cccc5c4C(=O)N(C4CCC(=O)NC4=O)C5=O)C3)CC2)c(F)cc1Nc1ncc2c(n1)N(C1CCCC1)CC(F)(F)C(=O)N2C (centres unmarked)
< 0.1 µM

# iterate: COc1cc(C(=O)N[C@H]2CC[C@H](N3CCN(CCOCCNc4cccc5c4C(=O)N(C4CCC(=O)NC4=O)C5=O)CC3)CC2)ccc1Nc1ncc2c(n1)N(C1CCCC1)CC(F)(F)C(=O)N2C (some centres unmarked)
< 0.05 µM

====

- Tested on: NCI-H526 cell line
- Run description: Cell viability assay for H526 cell (EZ-Cytox)
- Assay type: cell-based
- Condition set: Homo sapiens, NCI-H526, 120 h; H526 cells, 5 days, 3000 nM to 0.46 nM
Entries annotated with measured IC50

Some molecules with recorded IC50:
INSERT INTO results (molecule, endpoint_label, observed_result) VALUES
  ('COc1cc(C(=O)NC2CC(N(C)C3CCN(c4cccc5c4C(=O)N(C4CCC(=O)NC4=O)C5=O)CC3)C2)ccc1Nc1ncc2c(n1)N(C(C)C)CC(F)(F)C(=O)N2C (stereo not shown)', 'IC50', '< 30 nM'),
  ('COc1cc(C(=O)NC2CCN(CCOCCOCCNc3cccc4c3CN(C3CCC(=O)NC3=O)C4=O)CC2)ccc1Nc1ncc2c(n1)N(C1CCCC1)CC(F)(F)C(=O)N2C (stereo not shown)', 'IC50', '< 30 nM'),
  ('COc1cc(C(=O)NC2CCCN(CCN3CCN(c4cccc5c4C(=O)N(C4CCC(=O)NC4=O)C5=O)CC3)C2)ccc1Nc1ncc2c(n1)N(C1CCCC1)CC(F)(F)C(=O)N2C (stereo not shown)', 'IC50', '< 100 nM'),
  ('CN1C(=O)C(F)(F)CN(C2CCCC2)c2nc(Nc3ccc(C(=O)NC4CCN(C(=O)CCN5CCN(c6cccc7c6C(=O)N(C6CCC(=O)NC6=O)C7=O)CC5)CC4)cc3OC(F)(F)F)ncc21 (stereo not shown)', 'IC50', '< 200 nM'),
  ('COc1cc(C(=O)NN2CCN(C3CCN(c4cccc5c4C(=O)N(C4CCC(=O)NC4=O)C5=O)C3)CC2)ccc1Nc1ncc2c(n1)N(C(C)C)CC(F)(F)C(=O)N2C (stereo not shown)', 'IC50', '< 30 nM');

Give its IC50 value. Item: COc1cc(C(=O)NC2CCN(C(=O)CCCOc3cccc4c3CN(C3CCC(=O)NC3=O)C4=O)CC2)ccc1Nc1ncc2c(n1)N(C1CCCC1)CC(F)(F)C(=O)N2C (stereo not shown)
< 50 nM

# iterate: COc1cc(C(=O)N[C@H]2CC[C@H](N(C)CC3CCN(c4ccc5c(c4)C(=O)N(C4CCC(=O)NC4=O)C5=O)CC3)CC2)ccc1Nc1ncc2c(n1)N(C(C)C)CC(F)(F)C(=O)N2C (stereo partly shown)
< 50 nM

# iterate: COc1cc(C(=O)NC2CCN(C(=O)CN3CCN(c4ccc5c(c4)C(=O)N(C4CCC(=O)NC4=O)C5=O)CC3)CC2)ccc1Nc1ncc2c(n1)N(C1CCCC1)CC(F)(F)C(=O)N2C (stereo not shown)
< 100 nM

# iterate: COc1cc(C(=O)NC2CCN(C(=O)CCN3CCN(c4cccc5c4C(=O)N(C4CCC(=O)NC4=O)C5=O)CC3)CC2)ccc1Nc1ncc2c(n1)N(C(C)C)CC(F)(F)C(=O)N2C (stereo not shown)
< 50 nM

# iterate: COc1cc(C(=O)N2CCC(CCCN3CCN(c4ccc5c(c4)C(=O)N(C4CCC(=O)NC4=O)C5=O)CC3)CC2)ccc1Nc1ncc2c(n1)N(C1CCCC1)CC(F)(F)C(=O)N2C (stereo not shown)
< 400 nM

====

- System: NCI-H526 cell line
- Run description: Cell viability assay for H526 cell (EZ-Cytox)
- Type: cell-based
- Condition set: Homo sapiens, NCI-H526, 120 h; H526 cells, 5 days, 3000 nM to 0.46 nM
Entries annotated with measured IC50

Some compounds with recorded IC50:
INSERT INTO results (compound, target_entity, endpoint_label, observed_result) VALUES
  ('COc1cc(C(=O)NC2CCN(C(=O)CCCNc3cccc4c3CN(C3CCC(=O)NC3=O)C4=O)CC2)ccc1Nc1ncc2c(n1)N(C1CCCC1)CC(F)(F)C(=O)N2C (stereo not drawn) [Compound 26]', 'NCI-H526 cell line', 'IC50', '< 50 nM'),
  ('COc1cc(C(=O)NC2CCCN(CCCN3CCN(c4cccc5c4C(=O)N(C4CCC(=O)NC4=O)C5=O)CC3)C2)ccc1Nc1ncc2c(n1)N(C1CCCC1)CC(F)(F)C(=O)N2C (stereo not drawn) [Compound 144]', 'NCI-H526 cell line', 'IC50', '< 50 nM');

As a next step, examine the compound that follows.
Give its IC50 value. Item: COc1cc(C(=O)NCC2CCN(CCC3CCN(c4cccc5c4C(=O)N(C4CCC(=O)NC4=O)C5=O)C3)CC2)ccc1Nc1ncc2c(n1)N(C1CCCC1)CC(F)(F)C(=O)N2C (stereo not drawn) [Compound 50]
< 30 nM

====

Entries annotated with measured IC50
- Test system: NCI-H526 cell line
- Run description: Cell viability assay for H526 cell (EZ-Cytox)
- Assay type: cell-based
- Condition set: Homo sapiens, NCI-H526, 120 h; H526 cells, 5 days, 3000 nM to 0.46 nM

Some compounds with recorded IC50:
INSERT INTO assay_data (compound, observed_result) VALUES
  ('COc1cc(C(=O)N[C@H]2CC[C@H](OC3CCN(c4cccc5c4C(=O)N(C4CCC(=O)NC4=O)C5=O)CC3)CC2)c(F)cc1Nc1ncc2c(n1)N(C1CCCC1)CC(F)(F)C(=O)N2C (some centres unmarked)', '< 0.4 µM'),
  ('COc1cc(C(=O)N2CCC(CN3CCN(c4ccc5c(c4)C(=O)N(C4CCC(=O)NC4=O)C5=O)CC3)CC2)ccc1Nc1ncc2c(n1)N(C1CCCC1)CC(F)(F)C(=O)N2C (centres unmarked)', '< 0.4 µM'),
  ('COc1cc(C(=O)NN2CC(CN3CCN(c4cccc5c4C(=O)N(C4CCC(=O)NC4=O)C5=O)CC3)C2)ccc1Nc1ncc2c(n1)N(C(C)C)CC(F)(F)C(=O)N2C (centres unmarked)', '< 0.03 µM'),
  ('COc1cc(C(=O)NN2CCC(N3CC4(CCN(c5cccc6c5C(=O)N(C5CCC(=O)NC5=O)C6=O)CC4)C3)CC2)ccc1Nc1ncc2c(n1)N(C(C)C)CC(F)(F)C(=O)N2C (centres unmarked)', '< 0.03 µM');

Give its IC50 value. Item: CN1C(=O)C(F)(F)CN(C2CCCC2)c2nc(Nc3ccc(C(=O)NC4CCN(C(=O)CCN5CCN(c6cccc7c6C(=O)N(C6CCC(=O)NC6=O)C7=O)CC5)CC4)cc3O)ncc21 (centres unmarked)
< 0.1 µM
